# SYSTEM: Solute carrier family 12 member 5 (Homo sapiens)
# Sequence (Q9H2X9 whole entry): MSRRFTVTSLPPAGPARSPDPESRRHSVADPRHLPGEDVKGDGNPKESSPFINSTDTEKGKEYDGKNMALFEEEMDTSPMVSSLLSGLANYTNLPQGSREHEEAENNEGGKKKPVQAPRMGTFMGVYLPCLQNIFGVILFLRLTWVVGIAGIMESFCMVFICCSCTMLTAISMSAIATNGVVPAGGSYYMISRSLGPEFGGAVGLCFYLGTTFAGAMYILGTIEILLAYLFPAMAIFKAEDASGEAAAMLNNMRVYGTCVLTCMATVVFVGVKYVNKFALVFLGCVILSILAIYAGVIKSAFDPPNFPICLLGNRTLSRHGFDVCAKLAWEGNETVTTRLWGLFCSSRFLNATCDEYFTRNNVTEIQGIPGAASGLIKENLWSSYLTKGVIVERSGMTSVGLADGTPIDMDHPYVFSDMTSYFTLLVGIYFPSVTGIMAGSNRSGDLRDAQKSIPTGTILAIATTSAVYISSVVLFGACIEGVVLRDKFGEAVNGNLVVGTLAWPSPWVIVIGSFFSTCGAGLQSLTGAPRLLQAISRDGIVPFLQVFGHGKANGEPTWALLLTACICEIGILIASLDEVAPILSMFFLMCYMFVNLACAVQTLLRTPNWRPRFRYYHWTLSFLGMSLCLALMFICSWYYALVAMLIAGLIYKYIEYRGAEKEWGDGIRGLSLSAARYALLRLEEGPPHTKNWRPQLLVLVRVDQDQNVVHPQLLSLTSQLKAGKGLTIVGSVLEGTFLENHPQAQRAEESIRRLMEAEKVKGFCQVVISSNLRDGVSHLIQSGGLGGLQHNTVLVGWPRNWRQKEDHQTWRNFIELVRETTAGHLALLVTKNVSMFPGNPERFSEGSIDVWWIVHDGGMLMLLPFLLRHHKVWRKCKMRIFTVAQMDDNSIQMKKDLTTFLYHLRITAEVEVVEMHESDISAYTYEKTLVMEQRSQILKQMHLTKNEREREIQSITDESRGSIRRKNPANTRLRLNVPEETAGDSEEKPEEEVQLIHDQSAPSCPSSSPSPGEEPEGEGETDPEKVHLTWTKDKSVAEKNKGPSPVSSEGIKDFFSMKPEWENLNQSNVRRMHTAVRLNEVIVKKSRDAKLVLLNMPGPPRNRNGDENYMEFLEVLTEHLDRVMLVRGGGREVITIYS
# PROCEDURE_TEXT: concentration-response of KCC2 transport modulators – cell-based, HEK293 KCC2, FluoZin-2 fluorescence, dose response (AID 1736)
# MEASUREMENT_SETUP: inactive by the depositor's call
QUANTITY_KIND: pEC50
Bear in mind: pEC50 is minus log10 of a mol/L concentration; give just that figure.

Entry `O=C(/C=C/c1ccccc1)Nc1scc(-c2ccccc2)c1C(=O)O` : reported pEC50 = ?
6.87

Likewise for `S=c1[nH]nc(-c2cccc(Cl)c2)n1N=Cc1ccco1` ?
4.22

Please do the same for `CC(C)Oc1ccccc1OCCCOc1cccc2cccnc12` as well.
4.98

Please answer likewise for `O=C(/C=C/c1cccc([N+](=O)[O-])c1)Nc1cccc(NC(=O)c2cccs2)c1`
5.43

Do the same for `Cc1nc2c(-c3ccc(Cl)cc3)c(C)[nH]n2c(=O)c1Cc1ccccc1` please
4.36

Also need `COc1ccccc1-c1nc(C#N)c(N2CCC(Cc3ccccc3)CC2)o1` , thanks.
6.13
